src = the supplement of paper PMC9428881

Assay: background-corrected fluorescence of 3'-dye-labeled ssDNA relative to brightest sequence (3'-GCGCG) (fraction); higher = brighter dye fluorescence (less quenching)
Conditions: dye: Cy5 (3' terminal)
Assign background-corrected fluorescence to each entry below.
Numbers only.

For the 8 sequences below, give their background-corrected fluorescence values.
1. TTTTTTGATCAGCATGCTGATTTTTTTTTTTTTTTCGTAC
2. TTTTTGCAGCATCATCATGCTTTTTTTTTTTTTTTTTGGA [AGGTT]
3. TTTTTTGCTCATGATCATGCTTTTTTTTTTTTTTTAGCGA
4. TTTTTTCATGCTCAGCAGCATTTTTTTTTTTTTTTGAGTT
5. TTTTTTGAGCATGCTGCTCATTTTTTTTTTTTTTTCTAAG [GAATC]
6. TTTTTTGCGCATGATGATGCTTTTTTTTTTTTTTTATCCA [ACCTA]
7. TTTTTGCAGCATCATGCTGATTTTTTTTTTTTTTTTTGAC [CAGTT]
8. TTTTTGCATGCTCATGCTGATTTTTTTTTTTTTTTTAGAC [CAGAT]

[0.376, 0.638, 0.58, 0.422, 0.427, 0.373, 0.354, 0.369]
